- protocol-description: Three-treatment crossover pharmacokinetics of IN nalmefene, three dosing regimens (Example 13)
- condition-context: human, plasma, other: intranasal (IN spray), 6 mg, […], Median; Time 6.00; T3: 6 mg nalmefene HCl IN, two 0.1 mL sprays in one nostril
endpoint-label: concentration at 6 h (ng/mL)
Give a bare numeral; the unit ng/mL is implied.

State the recorded concentration at 6 h for this entry: "C=C1CC[C@@]2(O)[C@H]3Cc4ccc(O)c5c4[C@@]2(CCN3CC2CC2)[C@H]1O5"
3.51

###

- protocol-description: Phase 1 pharmacokinetic evaluation of nalmefene IN with and without Intravail vs IM injection
- condition-context: human, in vivo, 3 mg
endpoint-label: concentration at 0 h (ng/mL)
Give a bare numeral; the unit ng/mL is implied.

State the recorded concentration at 0 h for this entry: "C=C1CC[C@@]2(O)[C@H]3Cc4ccc(O)c5c4[C@@]2(CCN3CC2CC2)[C@H]1O5"
0

###

- protocol-description: Three-treatment crossover pharmacokinetics of IN nalmefene, three dosing regimens (Example 13)
- condition-context: human, plasma, other: intranasal (IN spray), 6 mg, […], Median; Time 0.00; T3: 6 mg nalmefene HCl IN, two 0.1 mL sprays in one nostril
endpoint-label: concentration at 0 h (ng/mL)
Give a bare numeral; the unit ng/mL is implied.

State the recorded concentration at 0 h for this entry: "C=C1CC[C@@]2(O)[C@H]3Cc4ccc(O)c5c4[C@@]2(CCN3CC2CC2)[C@H]1O5"
0

###

- protocol-description: Three-treatment crossover pharmacokinetics of IN nalmefene, three dosing regimens (Example 13)
- condition-context: human, plasma, other: intranasal, 6 mg, […], individual subject; Time 0.00; T3: 6 mg nalmefene HCl IN, two 0.1 mL sprays in one nostril
endpoint-label: concentration at 0 h (ng/mL)
Give a bare numeral; the unit ng/mL is implied.

State the recorded concentration at 0 h for this entry: "C=C1CC[C@@]2(O)[C@H]3Cc4ccc(O)c5c4[C@@]2(CCN3CC2CC2)[C@H]1O5"
0

###

- protocol-description: Two-period crossover pharmacokinetics of nalmefene 3 mg IN vs 1.0 mg IM (Example 12)
- condition-context: human, plasma, im, 1 mg, AUC0-10 min, GeoMean, Treatment B 1.0 mg IM (Ref)
endpoint-label: AUC(0-t) (ng·h/mL)
Give a bare numeral; the unit ng·h/mL is implied.

State the recorded AUC(0-t) for this entry: "C=C1CC[C@@]2(O)[C@H]3Cc4ccc(O)c5c4[C@@]2(CCN3CC2CC2)[C@H]1O5"
0.064

###

- protocol-description: Two-period crossover pharmacokinetics of nalmefene 3 mg IN vs 1.0 mg IM (Example 12)
- condition-context: human, plasma, other: intranasal, 3 mg, AUC0-20 min, Treatment A: 3.0 mg nalmefene hydrochloride IN; plasma; Geo. Mean, n 66
endpoint-label: AUC(0-t) (ng·h/mL)
Give a bare numeral; the unit ng·h/mL is implied.

State the recorded AUC(0-t) for this entry: C=C1CC[C@@]2(O)[C@H]3Cc4ccc(O)c5c4[C@@]2(CCN3CC2CC2)[C@H]1O5 [Nalmefene]
1.89

###

- protocol-description: Two-period crossover pharmacokinetics of nalmefene 3 mg IN vs 1.0 mg IM (Example 12)
- condition-context: human, plasma, im, 1 mg, AUClast, Treatment B: IM 1.0 mg nalmefene hydrochloride; plasma; Geo. Mean, n=68
endpoint-label: AUC(0-t)
Write down the value, and be sure its unit follows.

State the recorded AUC(0-t) for this entry: "C=C1CC[C@@]2(O)[C@H]3Cc4ccc(O)c5c4[C@@]2(CCN3CC2CC2)[C@H]1O5"
16 ng·h/mL

###

- protocol-description: Three-treatment crossover pharmacokinetics of IN nalmefene, three dosing regimens (Example 13)
- condition-context: human, plasma, other: intranasal (IN spray), 6 mg, AUC0-15 min, mean, Treatment C (T3) 6 mg in one nostril
endpoint-label: AUC(0-t) (ng·h/mL)
Give a bare numeral; the unit ng·h/mL is implied.

State the recorded AUC(0-t) for this entry: "C=C1CC[C@@]2(O)[C@H]3Cc4ccc(O)c5c4[C@@]2(CCN3CC2CC2)[C@H]1O5"
2.24

###

- protocol-description: Two-period crossover pharmacokinetics of nalmefene 3 mg IN vs 1.0 mg IM (Example 12)
- condition-context: human, plasma, other: intranasal, 3 mg, Mean plasma concentration, Treatment A 3.0 mg IN; […]
endpoint-label: concentration at 24 h (ng/mL)
Give a bare numeral; the unit ng/mL is implied.

State the recorded concentration at 24 h for this entry: "C=C1CC[C@@]2(O)[C@H]3Cc4ccc(O)c5c4[C@@]2(CCN3CC2CC2)[C@H]1O5"
0.366

###

- protocol-description: Two-period crossover pharmacokinetics of nalmefene 3 mg IN vs 1.0 mg IM (Example 12)
- condition-context: human, plasma, im, 1 mg, T1/2, Treatment B: IM 1.0 mg nalmefene hydrochloride; plasma; Geo. Mean, n=68
endpoint-label: half-life (h)
Give a bare numeral; the unit h is implied.

State the recorded half-life for this entry: C=C1CC[C@@]2(O)[C@H]3Cc4ccc(O)c5c4[C@@]2(CCN3CC2CC2)[C@H]1O5 [Nalmefene]
10.4

###

- protocol-description: Three-treatment crossover pharmacokinetics of IN nalmefene, three dosing regimens (Example 13)
- condition-context: human, plasma, other: intranasal (IN spray), 6 mg, AUCinf, mean, Treatment C (T3) 6 mg in one nostril
endpoint-label: AUC(0-inf) (ng·h/mL)
Give a bare numeral; the unit ng·h/mL is implied.

State the recorded AUC(0-inf) for this entry: C=C1CC[C@@]2(O)[C@H]3Cc4ccc(O)c5c4[C@@]2(CCN3CC2CC2)[C@H]1O5 [Nalmefene]
85.7
